Tested on: LXRa:RXRa (NR concentration 270 nM, RXRa partner concentration 90 nM)
Assay: PBM binding z-score (relative to random genomic background probes); higher = stronger binding; sequences stand for … in GC…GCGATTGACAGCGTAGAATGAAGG
For each entry below, report its PBM binding z-score value.
Just the number.

Query: Look up and report measured PBM binding z-score (LXRa:RXRa (NR concentration 270 nM, RXRa partner concentration 90 nM)) for the following sequence: CCTCGCAGGCCAGGGTCACTCAAGCATTTCGCTT
Reply: 1.69

Query: Look up and report measured PBM binding z-score (LXRa:RXRa (NR concentration 270 nM, RXRa partner concentration 90 nM)) for the following sequence: CCTTACGCGTCACGAGGTTATAGCACGACGAGCG
Reply: 0.868

Query: Look up and report measured PBM binding z-score (LXRa:RXRa (NR concentration 270 nM, RXRa partner concentration 90 nM)) for the following sequence: CCTCGGAGGACAGAAGGTCAGTGCTGTCCGCTTT
Reply: 1.1

Query: Look up and report measured PBM binding z-score (LXRa:RXRa (NR concentration 270 nM, RXRa partner concentration 90 nM)) for the following sequence: ACTCGGAGGACAAAGCTCAGAGCTACGCCAGTGA
Reply: -0.663

Query: Look up and report measured PBM binding z-score (LXRa:RXRa (NR concentration 270 nM, RXRa partner concentration 90 nM)) for the following sequence: CCTGCTCGGTCATGGTCAGCTAATCTACAGTATG
Reply: 0.33

Query: Look up and report measured PBM binding z-score (LXRa:RXRa (NR concentration 270 nM, RXRa partner concentration 90 nM)) for the following sequence: CCTTACGGGTCAAGGTTACAGCACGGGTGGTACG
Reply: 3.96

###

Tested on: PPARg:RXRa IVT, anti-PPARg (NR concentration 270 nM, RXRa partner concentration 90 nM)
Assay: PBM binding z-score (relative to random genomic background probes); higher = stronger binding; sequences stand for … in GC…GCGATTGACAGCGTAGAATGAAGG
Reported property: PBM binding z-score

Query: Look up and report measured PBM binding z-score (PPARg:RXRa IVT, anti-PPARg (NR concentration 270 nM, RXRa partner concentration 90 nM)) for the following sequence: CGTCAAAGTTCAAATAAGGTAACGTAAAGCACGC
Reply: 2.21

Query: Look up and report measured PBM binding z-score (PPARg:RXRa IVT, anti-PPARg (NR concentration 270 nM, RXRa partner concentration 90 nM)) for the following sequence: ATATGTAGGTTACACCCGGGTCATTCAGGCTATG
Reply: 7.68

Query: Look up and report measured PBM binding z-score (PPARg:RXRa IVT, anti-PPARg (NR concentration 270 nM, RXRa partner concentration 90 nM)) for the following sequence: CCTTACGGGTCACAGACAGGTTATAGCATTTGGA
Reply: 4.63

Query: Look up and report measured PBM binding z-score (PPARg:RXRa IVT, anti-PPARg (NR concentration 270 nM, RXRa partner concentration 90 nM)) for the following sequence: TCAGACAGGTGAAGGTAGCTCAGGTACGCAGTCG
Reply: 0.501

Query: Look up and report measured PBM binding z-score (PPARg:RXRa IVT, anti-PPARg (NR concentration 270 nM, RXRa partner concentration 90 nM)) for the following sequence: ACTCGGAGGACAATGGTCAGAGCTACGCCAGTGA
Reply: -0.421

Query: Look up and report measured PBM binding z-score (PPARg:RXRa IVT, anti-PPARg (NR concentration 270 nM, RXRa partner concentration 90 nM)) for the following sequence: CGTCCAAGGTCAATGCTAAGTCAGTGAAAGCATT
Reply: 3.34

Query: Look up and report measured PBM binding z-score (PPARg:RXRa IVT, anti-PPARg (NR concentration 270 nM, RXRa partner concentration 90 nM)) for the following sequence: ACTAGCAGGCCAAGTTTGGGTCACTAAAACAAAG
Reply: 1.41

Query: Look up and report measured PBM binding z-score (PPARg:RXRa IVT, anti-PPARg (NR concentration 270 nM, RXRa partner concentration 90 nM)) for the following sequence: GCTGCTAAGTCAGGTTGGTCAGCTAACGGGTACG
Reply: -0.681

Query: Look up and report measured PBM binding z-score (PPARg:RXRa IVT, anti-PPARg (NR concentration 270 nM, RXRa partner concentration 90 nM)) for the following sequence: GCTTGTAGAACAAGGTTAAGAAAGACTAAGCTAA
Reply: 1.06

Query: Look up and report measured PBM binding z-score (PPARg:RXRa IVT, anti-PPARg (NR concentration 270 nM, RXRa partner concentration 90 nM)) for the following sequence: TCTCGGAGAACACGAAAGGTCAGAGCTCGACATC
Reply: 1.13

Query: Look up and report measured PBM binding z-score (PPARg:RXRa IVT, anti-PPARg (NR concentration 270 nM, RXRa partner concentration 90 nM)) for the following sequence: ACTAGCAGGCCAAGGATCACTCAAGATTAGTCCG
Reply: 0.675

Query: Look up and report measured PBM binding z-score (PPARg:RXRa IVT, anti-PPARg (NR concentration 270 nM, RXRa partner concentration 90 nM)) for the following sequence: TAGCCTAGGTCATGGGCTAGTATACCACGCGAAC
Reply: 3.37
